Target: T1, Recombinant monkey OX-40 protein (monkey)
T1 chain: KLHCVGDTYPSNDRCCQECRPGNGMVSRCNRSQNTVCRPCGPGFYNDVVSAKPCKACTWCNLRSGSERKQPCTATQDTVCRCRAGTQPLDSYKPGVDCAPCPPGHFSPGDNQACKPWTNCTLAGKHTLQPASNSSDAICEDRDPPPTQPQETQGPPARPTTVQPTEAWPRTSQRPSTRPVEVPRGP
Assay: ELISA, plate coated with recombinant monkey OX-40 protein, antibody titrated
Sorting guide: entries reporting EC50 beneath 0.04 mg/L go in the y pile, the rest go in the n pile.

Worked cases, answers included:
| binder | discrete label |
| --- | --- |
| AH02913 humanized anti-human OX40 monoclonal antibody (recombinant human IgG1/kappa) (antibody, V domains shown) VH: QVQLVQSGPEVKKPGASVKVSCKASGYTFTDYSMHWVKQAPGQGLEWMGWISTETGEPTYADDFKGRVTITLDTSASTAYMELSSLRSEDTAVYFCARVRPWYLAVWGQGTLVTVSS VL: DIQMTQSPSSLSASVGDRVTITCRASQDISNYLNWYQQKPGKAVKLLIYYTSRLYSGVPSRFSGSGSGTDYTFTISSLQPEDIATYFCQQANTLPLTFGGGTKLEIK | y |
| AH02916 humanized anti-human OX40 monoclonal antibody (recombinant human IgG1/kappa) (antibody, V domains shown) VH: QVQLVQSGAEVKKPGASVKVSCKASGYTFTDYSMHWVKQAPGQGLEWMGWISTETGEPTYADDFKGRVTITLDTSASTAYMELSSLRSEDTAVYYCARVRPWYLAVWGQGTLVTVSS VL: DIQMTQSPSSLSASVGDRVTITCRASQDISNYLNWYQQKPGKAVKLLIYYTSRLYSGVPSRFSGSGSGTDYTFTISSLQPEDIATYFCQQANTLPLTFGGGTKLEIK | y |
| AH02921 humanized anti-human OX40 monoclonal antibody (recombinant human IgG1/kappa) (antibody, V domains shown) VH: QVQLVQSGPEVKKPGASVKVSCKASGYTFTDYSMHWVRQAPGQGLEWMGWISTETGEPTYADDFKGRFTITLDTSASTAYLEISSLRSEDTAVYFCARVRPWYLTVWGQGTLVTVSS VL: DIQMTQSPSSLSASVGDRVTITCRASQDISNYLNWYQQKPGKAPKLLIYYTSRLYSGVPSRFSGSGSGTDYTLTISSLQPEDIATYFCQQANTLPLTFGGGTKLEIK | y |

IN: Criterion: EC50 strictly below 0.04 mg/L. Is it met by Chimeric antibody (anti-human OX40, recombinant, human IgG1/kappa constant regions) (antibody, V domains shown) VH: QIQLVQSGPELKKPGETVKISCKASGYTFTDYSMHWVKQAPGKGLKWMGWISTETGEPTYADDFKGRFAFSLETSASTAYLQIKNLKNEDTASYFCARVRPWYLAVWGAGTTVTVSS VL: DIQMTQTTSSLSASLGDRVTISCRASQDISNYLNWYQQKPDGTVKLLIYYTSRLYSGVPSRFSGSGSGADYSLTVSNLEQEDIATYFCQQANTLPLTFGAGTKLELK ?
OUT: n

IN: Criterion: EC50 strictly below 0.04 mg/L. Is it met by AH02923 humanized anti-human OX40 monoclonal antibody (recombinant human IgG1/kappa) (antibody, V domains shown) VH: QVQLVQSGAEVKKPGASVKVSCKASGYTFTDYSMHWVRQAPGQGLEWMGWISTETGEPTYADDFKGRFTFTLDTSASTAYLELSSLRSEDTAVYYCARVRPWYLAVWGQGTLVTVSS VL: DIQMTQSPSSLSASVGDRVTITCRASQDISNYLNWYQQKPGKAVKLLIYYTSRLYSGVPSRFSGSGSGTDYTFTISSLQPEDIATYYCQQANTLPLTFGGGTKLEIK ?
OUT: y
